Values from the supplement of paper PMC6757056

B1: library; a variant is named by its letters at N, in order (parent)
chain: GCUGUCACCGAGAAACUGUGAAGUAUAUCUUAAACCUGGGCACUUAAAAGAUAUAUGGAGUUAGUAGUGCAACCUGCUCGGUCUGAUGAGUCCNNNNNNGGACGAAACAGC

- Variants of: B1
- method_summary: normalized RNA/DNA level with ligand (relative to sTRSVctl = 100) (log10 (% of sTRSVctl)); HEK293T; ligand: cyclic di-GMP (c-di-GMP-II aptamer); ligand concentration (+) RNA-Seq: 1 mM; higher = less ribozyme self-cleavage, higher mRNA level
- condition_parameters: reporter: mCherry (pCS4076), ligand present: yes
Reported normalized RNA/DNA level with ligand (log10) values follow for various variants

// solved cases for normalized RNA/DNA level with ligand (log10) follow
>>> data_value("UUCAGA")
1.81
>>> data_value("UUCAAC")
1.82
>>> data_value("UGAGCU")
1.87
>>> data_value("AUGCGG")
1.82
>>> data_value("AUAUUC")
1.84

# return recorded normalized RNA/DNA level with ligand (log10) for input `UGCCAG`
1.87

# return recorded normalized RNA/DNA level with ligand (log10) for input `GCCUCG`
1.89

# return recorded normalized RNA/DNA level with ligand (log10) for input `AGUAAG`
1.7

# return recorded normalized RNA/DNA level with ligand (log10) for input `GUGCCC`
1.84

# return recorded normalized RNA/DNA level with ligand (log10) for input `GGCCUG`
1.87
